experimentalSystem: human C3bBb (Bb from FB D279G/K350N/M458I) (human)
Sequence (P01024 23-1663, chain 1 of 2): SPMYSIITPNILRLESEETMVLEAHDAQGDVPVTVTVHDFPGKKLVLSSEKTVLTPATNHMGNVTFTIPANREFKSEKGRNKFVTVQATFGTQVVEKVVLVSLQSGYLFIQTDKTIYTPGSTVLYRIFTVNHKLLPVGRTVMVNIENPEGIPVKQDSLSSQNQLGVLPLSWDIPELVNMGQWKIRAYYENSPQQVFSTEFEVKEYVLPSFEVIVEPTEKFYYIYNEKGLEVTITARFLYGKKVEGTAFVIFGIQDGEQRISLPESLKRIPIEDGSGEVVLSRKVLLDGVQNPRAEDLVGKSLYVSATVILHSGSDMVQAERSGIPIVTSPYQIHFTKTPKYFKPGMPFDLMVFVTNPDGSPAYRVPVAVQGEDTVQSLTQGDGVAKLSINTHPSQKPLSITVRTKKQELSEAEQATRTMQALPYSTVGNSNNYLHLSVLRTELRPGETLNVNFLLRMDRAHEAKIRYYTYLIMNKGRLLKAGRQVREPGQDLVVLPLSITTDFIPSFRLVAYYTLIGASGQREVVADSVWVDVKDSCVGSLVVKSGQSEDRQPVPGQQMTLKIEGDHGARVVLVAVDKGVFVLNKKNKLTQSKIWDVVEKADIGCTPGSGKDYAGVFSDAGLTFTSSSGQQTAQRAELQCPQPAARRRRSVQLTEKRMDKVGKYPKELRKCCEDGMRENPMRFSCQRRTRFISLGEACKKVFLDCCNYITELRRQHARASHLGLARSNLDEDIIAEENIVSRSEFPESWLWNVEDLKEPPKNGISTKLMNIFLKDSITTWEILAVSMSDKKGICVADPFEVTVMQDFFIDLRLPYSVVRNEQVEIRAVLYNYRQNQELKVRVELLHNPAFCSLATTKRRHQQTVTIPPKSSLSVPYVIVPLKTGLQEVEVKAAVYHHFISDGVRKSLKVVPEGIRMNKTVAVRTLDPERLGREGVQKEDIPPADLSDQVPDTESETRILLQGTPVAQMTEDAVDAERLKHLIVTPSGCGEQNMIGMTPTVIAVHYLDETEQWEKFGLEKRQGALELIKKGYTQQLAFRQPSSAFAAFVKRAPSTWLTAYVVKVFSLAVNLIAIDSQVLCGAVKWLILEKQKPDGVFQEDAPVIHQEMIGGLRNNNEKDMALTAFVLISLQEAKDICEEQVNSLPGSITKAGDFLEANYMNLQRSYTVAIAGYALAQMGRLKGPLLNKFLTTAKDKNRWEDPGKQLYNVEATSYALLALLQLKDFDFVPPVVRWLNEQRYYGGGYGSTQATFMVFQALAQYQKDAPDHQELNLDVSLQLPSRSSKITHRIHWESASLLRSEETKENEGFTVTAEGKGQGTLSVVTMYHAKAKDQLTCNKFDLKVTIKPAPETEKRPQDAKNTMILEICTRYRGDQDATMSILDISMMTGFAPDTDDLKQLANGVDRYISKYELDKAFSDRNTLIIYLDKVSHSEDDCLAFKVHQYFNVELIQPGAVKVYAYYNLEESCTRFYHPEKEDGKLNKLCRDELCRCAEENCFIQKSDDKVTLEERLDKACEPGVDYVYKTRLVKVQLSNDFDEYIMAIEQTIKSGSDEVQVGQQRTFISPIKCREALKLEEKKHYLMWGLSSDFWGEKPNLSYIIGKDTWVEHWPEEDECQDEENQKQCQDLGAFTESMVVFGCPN
Sequence (P00751 260-764 D279G/K350N/M458I, chain 2 of 2, further chain): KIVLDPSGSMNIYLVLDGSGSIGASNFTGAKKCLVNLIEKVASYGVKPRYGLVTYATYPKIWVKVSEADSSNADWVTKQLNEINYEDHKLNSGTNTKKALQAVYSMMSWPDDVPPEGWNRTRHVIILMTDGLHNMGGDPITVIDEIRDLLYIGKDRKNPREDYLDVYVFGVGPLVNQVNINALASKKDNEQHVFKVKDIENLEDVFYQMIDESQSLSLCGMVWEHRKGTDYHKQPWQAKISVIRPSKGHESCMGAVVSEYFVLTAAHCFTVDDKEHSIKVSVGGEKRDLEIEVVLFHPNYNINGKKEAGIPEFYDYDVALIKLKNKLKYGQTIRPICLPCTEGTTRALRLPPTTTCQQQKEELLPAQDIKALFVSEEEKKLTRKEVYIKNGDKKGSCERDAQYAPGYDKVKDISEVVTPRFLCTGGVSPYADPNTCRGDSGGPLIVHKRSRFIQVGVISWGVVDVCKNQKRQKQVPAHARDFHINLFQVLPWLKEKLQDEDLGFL
experimentalDetails: SPR, 37C
Documented Kd across a set of binders
Field: numeric (nM). Do not append units.

[[record]]
binder = "P1AH1205 (antibody, V domains shown) VH: KVQLVESGGGLVQPGGSLRLSCAASGFKWEHYAMSWVRQAPGKGLEWVGSISPRGDHKYYNTKFIDRFTISRDNDKNTLYLQMNSLRAEDTAVYYCARDWDYFDRWGQGTLVTVSS VL: AIQMTQSPSSLSASVGDRVTITCQSQFWLSNYLAWYQQKPGKAPKLLIFDGDLPYERPSRFSGSGSHDEYTLTISSLQPEDFATYYCQQYREEPYTFGQGTKLEIK"
measurement = 0.095

[[record]]
binder = "P1AG9426 (antibody, V domains shown) VH: QVQLVESGGGLVQPGGSLRLSCAASGFKYDVYAMSWVRQAPGKGLEWVGEISPRGDSKYYNTKFIDRFTISRDNEKNTLYLQMNSLRAEDTAVYYCARDWEYFDNWGQGTLVTVSS VL: AIQMTQSPSSLSASVGDRVTITCQASYWLSNYLAWYQQKPGKAPKLLIFDGDIPYEIPSRFSGSGSHEEYTLTISSLQPEDFATYYCQQYRETPYTFGQGTKLEIK"
measurement = 0.014

[[record]]
binder = "P1AH1199 (antibody, V domains shown) VH: QVQLVESGGGLVQPGGSLRLSCAASGFKYDVYAMSWVRQAPGKGLEWVGEISPRGDSKYYNTKFIDRFTISRDNEKNTLYLQMNSLRAEDTAVYYCARDWEYFDNWGQGTLVTVSS VL: AIQMTQSPSSLSASVGDRVTITCQASYWLSNYLAWYQQKPGKAPKLLIFDGDIPWEIPSRFSGSGSHEEYTLTISSLQPEDFATYYCQQYRDTPYTFGQGTKLEIK"
measurement = 0.2


Q: Tell me the measured Kd of P1AG9391 (antibody, V domains shown) VH: QVQLVESGGGLVQPGGSLRLSCAASGFKYDVYAMSWVRQAPGKGLEWVGEISPRGDSKYYNTKFIDRFTISRDNEKNTLYLQMNSLRAEDTAVYYCARDWEYFDNWGQGTLVTVSS VL: AIQMTQSPSSLSASVGDRVTITCQASYWLSNYLAWYQQKPGKAPKLLIFDGDIPWEIPSRFSGSGSHEEYTLTISSLQPEDFATYYCQQYRDTPYTFGQGTKLEIK , please.
Result: 0.0016
